Reported LPS % cell toxicity is given for each of the following compounds.
# Tested on: primary rat microglia
# method-summary: Cell toxicity (dead cells, size <150 μm2) in LPS assay
# experimental-parameters: primary microglia HTS, LPS stimulation; decreased size (<150 μm^2) as marker of toxicity

Field: example entries. Status: answers known.
query: I have this compound here, C#C[C@]1(OC(C)=O)CC[C@H]2[C@@H]3CCC4=CC(=O)CC[C@@H]4[C@H]3CC[C@@]21C [Norethindrone Acetate] , and I need its recorded LPS % cell toxicity.
result: 0%

query: Which LPS % cell toxicity is listed for CCOC(=O)CC(=O)N1CCSC1COc1ccccc1OC (centres unmarked) [Moguisteine] ?
result: 0%

query: I would be grateful if you could share the reported LPS % cell toxicity for CN1C[C@H](CNC(=O)OCc2ccccc2)C[C@@H]2c3cccc4c3c(cn4C)C[C@H]21 [Metergoline] .
result: 0%

More entries:
query: Which LPS % cell toxicity value is on record for c1ccc2[nH]c(-c3cscn3)nc2c1 [Thiabendazole, reference compound] ?
result: 1%

query: Field request: LPS % cell toxicity | item: NC(=O)C[S+]([O-])C(c1ccccc1)c1ccccc1 (centres unmarked) [Modafinil]
result: 0%

query: Can you look up the measured LPS % cell toxicity of C=C1C[C@H]2[C@@H]3C=C(C)C4=CC(=O)CC[C@]4(C)[C@H]3CC[C@]2(C)[C@@]1(OC(C)=O)C(C)=O [Melengestrol acetate, reference compound] for me?
result: 2%

query: Bench note: what LPS % cell toxicity did COC(=O)Nc1nc2ccc(Sc3ccccc3)cc2[nH]1 [Fenbendazole, reference compound] show?
result: 1%

query: Looking for the measured LPS % cell toxicity of O=C(O)c1cc(/N=N/c2ccc(O)c(C(=O)O)c2)ccc1O [Olsalazine] , can you help?
result: 1%

---

# Tested on: primary rat microglia
# method-summary: Cell toxicity (dead cells, size <150 μm2) in coated fibrin (cFib) assay;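 note: share of dead cells sized under 150 µm2 at 10 µM in fibrin-stimulated microglia HTS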
# experimental-parameters: primary microglia HTS, fibrin assay, dead cells (size <150 μm2)
measure: Fibrin % cell toxicity (%)
Expressed in %, but write only the number.

Answered examples (5):
query: Would you kindly share the measured Fibrin % cell toxicity for COC(=O)N[C@H](C(=O)N[C@@H](Cc1ccccc1)[C@@H](O)CN(Cc1ccc(-c2ccccn2)cc1)NC(=O)[C@@H](NC(=O)OC)C(C)(C)C)C(C)(C)C ?
result: 0

query: Endpoint output: Fibrin % cell toxicity of CC(=O)OC1CN2CCC1CC2.Cl (centres unmarked) [Aceclidine Hydrochloride, Aceclidine] . Value?
result: 1

query: Using the record for COc1ccc(C[C@H](N)C(=O)N[C@H]2[C@@H](O)[C@H](n3cnc4c(N(C)C)ncnc43)O[C@@H]2CO)cc1.Cl.Cl , report its Fibrin % cell toxicity.
result: 66

query: What value of Fibrin % cell toxicity has been recorded for this entry: CC(=O)c1ccc2c(c1)N(CCCN(C)C)c1ccccc1S2
result: 1

query: Name the recorded Fibrin % cell toxicity for NCC(CC(=O)O)c1ccc(Cl)cc1 (racemic) [(±)-baclofen, Baclofen] .
result: 0

Further cases:
query: Would you kindly share the measured Fibrin % cell toxicity for N=C(N)NN ?
result: 0

query: // query Fibrin % cell toxicity value for entry CCc1oc2ccccc2c1C(=O)c1cc(Br)c(O)c(Br)c1
result: 0

query: For the compound C[C@@H]1CC[C@H]2[C@@H](C)C(=O)O[C@@H]3O[C@@]4(C)CC[C@@H]1[C@]32OO4 , what Fibrin % cell toxicity is on record?
result: 0

query: // lookup Fibrin % cell toxicity for O=C(O)CCNC(=O)c1ccc(/N=N/c2ccc(O)c(C(=O)O)c2)cc1 [Balsalazide]
result: 0

query: Give the measured Fibrin % cell toxicity of C=CCN=C=S [Allylisothiocyanate] .
result: 1

query: I am curious: what Fibrin % cell toxicity value has been reported for C[C@H]1C[C@H]2[C@@H]3CCC4=CC(=O)C=C[C@]4(C)[C@@]3(Cl)[C@@H](O)C[C@]2(C)[C@@]1(O)C(=O)CO ?
result: 1

query: Entry under review: Cl.NCC(O)c1ccc(O)cc1 (racemic) . Reported Fibrin % cell toxicity?
result: 1

query: Entry C[C@@H](O[C@H]1OCCN(Cc2n[nH]c(=O)[nH]2)[C@H]1c1ccc(F)cc1)c1cc(C(F)(F)F)cc(C(F)(F)F)c1 [Aprepitant] : reported Fibrin % cell toxicity = ?
result: 1
